Tested on: RAF1
assayContext: concentration: 1 μM, replicates: in singlicate; n = 1;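 note: KINOMEscan kinase panel screen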
readoutKind: %Inh (%)
Numbers only, in %.

Use the examples below as a reference point.
Fc1cccc(COc2nnc(-c3ccc4c(c3)CCO4)o2)c1	4
COc1ccc2nc(-c3cccc(C)n3)nc(Nc3ccncc3)c2c1	6
Cc1cccc(-c2cc(Nc3ccncc3)c3ccccc3n2)n1	6
CC(C)(C)c1ccc(C(=O)Nc2cn3cc(Cl)ccc3n2)cc1	0

Next compound, please.
input: Fill in the recorded %Inh for this compound, with RAF1 as test system: Cc1cccc(-c2nc(Nc3cccc(C(N)=O)c3)c3ccccc3n2)n1
output: 17

====

System: EGFR
assayContext: concentration: 1 μM, replicates: in singlicate; n = 1
// label = met if %Inh is not less than 20%, otherwise not met

O=C1NC(=O)C(N2CCc3ccccc32)=C1c1ccccc1Cl [SB-373598]	met
Cc1cccc(-c2nc(Nc3ccc4[nH]ncc4c3)c3ccccc3n2)n1 [GW857175]	not met
CC1=C(C(=O)Nc2cc3cn[nH]c3cc2F)C(c2ccc(C(F)(F)F)cc2)CC(=O)N1 (stereo not drawn) [GSK429286]	met
Cl.O=C(Nc1cccc(-c2nn3ncccc3c2-c2ccnc(Nc3cccnc3)n2)c1)c1c(F)cccc1F [GSK312879]	met
Cn1cncc1-c1ccc2ncnc(Nc3ccc(OCc4ccccc4)cc3)c2c1 [GW320571]	met
CC(=O)Nc1nc2cnc(Nc3cc(NC(=O)c4cccc(CCC#N)c4)ccc3C)nc2s1	not met
Cc1cc(NCC(c2ccccc2)c2ccccc2)nc(NCc2ccc(C(F)(F)F)cc2)n1 [GW497681]	not met

Turning to the following molecule.
input: Hi team, for COc1ccccc1-c1ccc2c(NC(=O)C3CC3)n[nH]c2n1 [SB-711239] , is the recorded %Inh at or above 20%?
output: not met

====

Tested on: AKT3
assayContext: concentration: 1 μM, replicates: in singlicate; n = 1
readoutKind: %Inh (%)
Give bare numbers, in %.

Example entries begin here.
COc1ccc2nc(-c3cccc(C)n3)nc(Nc3ccncc3)c2c1 [GSK204919]	0
Cc1cccc(-c2cc(Nc3ccncc3)c3ccccc3n2)n1 [GSK223675]	0
COc1cccc(NC(=O)NC2CCN(c3ccnc(Nc4ccc(F)cc4)n3)C2)c1 (stereo not drawn) [GSK1379721]	0
COc1cc(Nc2nccc(N3CCC(NC(=O)Nc4cc(C)ccc4C)C3)n2)cc(OC)c1OC (stereo not drawn) [GSK1379762]	0
Cc1ccc(-c2cc(-c3c[nH]nc3-c3ccccn3)ccn2)cc1 [GW684088]	0
CS(=O)(=O)c1ccc(-c2c(-c3ncn[nH]3)sc(N3CCOCC3)c2C#N)cc1	0

Take each entry in turn and give its %Inh.
1. Nc1ncnc2[nH]c(-c3ccccc3)nc12 [AH5015]
2. Cn1cncc1-c1ccc2ncnc(Nc3ccc(OCc4ccccc4)cc3)c2c1 [GW320571]
3. Cc1ccc(NC(=O)Nc2cc(C(C)(C)C)nn2-c2ccccc2)cc1 [GSK1014915]

output:
[0, 10, 20]

====

Test system: FER
assayContext: concentration: 1 μM, replicates: in singlicate; n = 1
readoutKind: %Inh (%)
One number for each entry, in %.

Cc1cccc(-c2cc(Nc3ccncc3)c3ccccc3n2)n1	0
Cl.O=C(Nc1cccc(-c2nn3ncccc3c2-c2ccnc(Nc3cccnc3)n2)c1)c1c(F)cccc1F	10
Cc1csc(-c2nc(Nc3ccncc3)c3ccccc3n2)n1	7
CC(C)(C)c1ccc(C(=O)Nc2cn3cc(-c4cccnc4)ccc3n2)cc1	0
O=C(Nc1n[nH]c2nc(-c3nccs3)c(Br)cc12)C1CC1	0
Cc1ccc(NC(=O)Nc2cccc(Cl)c2)cc1-c1ccc(C(=O)Nc2ccncc2)cc1	6
COC(=O)c1c(-c2ccccc2)c2cc(OC)ccc2c(=O)n1Cc1ccccc1	0
Cc1cc(-c2ccc3c(c2)CC[C@@H](N[C@@H](C)c2ccccc2)C3)cnc1N.Cl	27

Please state, for each entry, its recorded %Inh.
1. COc1ccc(CNC(=O)NC2CCN(c3ccnc(Nc4cc(OC)c(OC)c(OC)c4)n3)C2)cc1 (stereo not shown)
2. Nc1nc(-c2nccs2)c(-c2ccnc3ccccc23)s1
3. CC1=C(C(=O)Nc2cc3cn[nH]c3cc2F)C(c2ccc(C(F)(F)F)cc2)CC(=O)N1 (stereo not shown)
4. COc1ccc2nc(-c3cccc(C)n3)nc(Nc3ccncc3)c2c1
5. NC(=O)c1nnc2ccccc2c1N
6. CS(=O)(=O)c1ccc(-c2nc3n(c2-c2ccncc2)CCC3)cc1

output:
0
15
4
14
0
1

====

Tested on: MST4
assayContext: concentration: 1 μM, replicates: in singlicate; n = 1
Field: %Inh. Provide a value for each of the compounds that follow.
Numbers only, in %.

O=C(Nc1n[nH]c2nc(-c3nccs3)c(Br)cc12)C1CCCC1	6

Please go through the list and note %Inh for each compound.
1. CC(C)(C)c1ccc(C(=O)Nc2cn3cc(Cl)ccc3n2)cc1
2. Cl.O=C(Nc1cccc(-c2nn3ncccc3c2-c2ccnc(Nc3cccnc3)n2)c1)c1c(F)cccc1F
3. Nc1nc(-c2nccs2)c(-c2ccnc3ccccc23)s1

output:
1. 0
2. 0
3. 0

Give %Inh for all compounds that follow.
1. O=C1NC(=O)C(N2CCc3ccccc32)=C1c1ccccc1Cl
2. COc1ccc(Nc2nccc(NCCNC(=O)Nc3ccccc3F)n2)cc1
3. COc1cccc(NC(=O)NC2CCN(c3ccnc(Nc4ccc(F)cc4)n3)C2)c1 (stereo not drawn)

output:
1. 8
2. 0
3. 0

Hello, I would appreciate it if you could give %Inh for each entry below.
1. COc1cc(Nc2nccc(N3CCC(NC(=O)Nc4cc(C)ccc4C)C3)n2)cc(OC)c1OC (stereo not drawn)
2. COc1ccccc1-c1ccc2c(NC(=O)C3CC3)n[nH]c2n1

output:
0
0

====

I'd appreciate it if you could supply %Inh values for the items below.
Test system: NEK7
assayContext: concentration: 1 μM, replicates: in singlicate; n = 1
One number for each entry, in %.

Completed entries (count: 3):
CN(C)CCN(C)C(=O)c1cc(-c2ccncc2)c(-c2ccc(Cl)c(O)c2)o1.Cl.Cl [SB-710397]	0
CCn1c(-c2ccccn2)nc2cnccc21 [SB-736398]	0
O=C(Nc1n[nH]c2nc(-c3nccs3)c(Br)cc12)C1CC1 [SB-742251]	0

For each of the compounds below, state %Inh.
1. Cc1cc(-c2ccc3c(c2)CC[C@@H](N[C@@H](C)c2ccccc2)C3)cnc1N.Cl [GW412617]
2. Cl.O=C(Nc1cccc(-c2nn3ncccc3c2-c2ccnc(Nc3cccnc3)n2)c1)c1c(F)cccc1F [GSK312879]
3. Cc1cc(NCC(c2ccccc2)c2ccccc2)nc(NCc2ccc(C(F)(F)F)cc2)n1 [GW497681]
4. CC(C)(C)c1ccc(C(=O)Nc2cn3cc(Cl)ccc3n2)cc1
5. COc1cc2ncnc(Nc3ccc4nc(-c5ccccc5)[nH]c4c3)c2cc1OC.Cl [GW282450]
6. Cl.NC(=O)c1cccc(Nc2nccc(Nc3ccc(Oc4cccc(Cl)c4)c(Cl)c3)n2)c1 [GW659008]

output:
1: 9; 2: 7; 3: 0; 4: 0; 5: 0; 6: 16

====

Test system: LTK
assayContext: concentration: 1 μM, replicates: in singlicate; n = 1
readoutKind: %Inh

Illustrative cases are given below, each with its answer.
Fc1cccc(COc2nnc(-c3ccc4c(c3)CCO4)o2)c1	0%
Cc1ccc(NC(=O)Nc2cccc(Cl)c2)cc1-c1ccc(C(=O)Nc2ccncc2)cc1	7%
COc1ccc2nc(-c3cccc(C)n3)nc(Nc3ccncc3)c2c1	0%
NC(=O)c1nnc2ccccc2c1N	0%

input: Query the reported %Inh for LTK; item: CC(C)(C)c1ccc(C(=O)Nc2cn3cc(-c4cccnc4)ccc3n2)cc1
output: 19%

====

System: p38-alpha
Construct: gene MAPK14
assayContext: concentration: 1 μM, replicates: in singlicate; n = 1
readoutKind: %Inh (%)
Answers are plain numbers, in %.

Each of the following entries comes with a recorded value; kindly state %Inh for each.
1. Cc1ccc(C(=O)Nc2ccc(Nc3ccnc4cc(-c5ccccn5)ccc34)cc2O)cc1.Cl
2. Clc1cc(Cl)cc(Nc2ccnc(Nc3cc(Cl)cc(Cl)c3)n2)c1
3. Cc1cc(NCC(c2ccccc2)c2ccccc2)nc(NCc2ccc(C(F)(F)F)cc2)n1
4. Cc1cc(N2Cc3ccccc3C2)nc(Nc2ccc(S(=O)(=O)N3CCOCC3)cc2)n1.Cl
5. CCn1c(-c2cccnc2O)nc2cnccc21

output:
1. 0
2. 26
3. 7
4. 3
5. 0

Please go through the list and note %Inh for each molecule.
1. Cc1csc(-c2nc(Nc3ccncc3)c3ccccc3n2)n1
2. O=C(Nc1ccccc1)Nc1cccc(Oc2ccc3nccn3n2)c1

output:
1. 14
2. 0

====

System: CSNK1A1
assayContext: concentration: 1 μM, replicates: in singlicate; n = 1
readoutKind: %Inh (%)
Give bare numbers, in %.

O=C(Nc1n[nH]c2nc(-c3nccs3)c(Br)cc12)C1CCCC1 [SB-742609]	25

Parameters: items (list). Returns: %Inh for each item.
1. O=C(Nc1ccccc1)Nc1cccc(Oc2ccc3nccn3n2)c1
2. COc1ccccc1-c1ccc2c(NC(=O)C3CC3)n[nH]c2n1 [SB-711239]
3. O=S(=O)(c1ccc(-c2ccnc3[nH]ccc23)cc1)N1CCCC1 [GSK846226]

output:
0
10
0

Parameter requested: %Inh. Apply to each item below.
1. Cc1c(Cn2ccn3c(=O)cc(N4CCOCC4)nc23)cccc1C(F)(F)F [GSK2289044]
2. Fc1cc(Cl)ccc1Nc1ccnc2cc(I)ccc12 [GW551191]
3. O=C(Nc1ccc2c(c1)OCO2)NC1CCN(c2ccnc(Nc3ccc(F)cc3)n2)C1 (stereo not drawn) [GSK1379724]
4. O=c1cc(N2CCOCC2)nc2n(Cc3cccc(Cl)c3Cl)ccn12 [GSK2286295]
5. CCCc1ccc(S(=O)(=O)NC2CCN(c3ccnc(Nc4ccc(F)cc4)n3)C2)cc1 (stereo not drawn) [GSK1379715]

output:
[33, 0, 0, 27, 0]

// each listed compound needs a value for %Inh
1. CN1C(=O)C(Nc2ccc(Cl)c(C(=O)O)c2)=C(c2ccc(Cl)cc2)C1=O [SB-404290]
2. Cl.O=C(Nc1cccc(-c2nn3ncccc3c2-c2ccnc(Nc3cccnc3)n2)c1)c1c(F)cccc1F [GSK312879]
3. Cl.c1ccc(-c2n[nH]cc2-c2ccnc(-c3ccc(CN4CCOCC4)cc3)c2)nc1 [GW776245]
4. CC(=O)Nc1nc2cnc(Nc3cc(NC(=O)c4cccc(CCC#N)c4)ccc3C)nc2s1

output:
1: 0; 2: 0; 3: 61; 4: 23

For each of the compounds below, state %Inh.
1. Cc1cc(-c2ccc3c(c2)CC[C@@H](N[C@@H](C)c2ccccc2)C3)cnc1N.Cl [GW412617]
2. Cc1cccc(-c2nc(-c3ccc(S(C)(=O)=O)cc3)sc2-c2ccnc(NCCc3ccccc3)c2)c1
3. COc1ccc(Nc2nccc(NCCNC(=O)Nc3ccccc3F)n2)cc1 [GSK1379901]

output:
6
0
0

Items follow; give %Inh for each.
1. Cn1ccc2ncnc(Oc3ccc(NC(=O)Nc4ccccc4)cc3)c21
2. Cc1ccc(C(=O)Nc2ccc(Nc3ccnc4cc(-c5ccccn5)ccc34)cc2O)cc1.Cl [GW440146]

output:
1. 4
2. 0
